Molecular target: T1, recombinant, phycoerythrin (PE) labeled, BCMA extracellular domain-FC fusion protein (Homo sapiens (Human), UniProt Q02223 1-54, phycoerythrin (PE) label)
T1 construct: The whole entry is named here; only the extracellular domain stood in the assay; also called BCMA-PE; not shown: Fc part of the staining reagent
T1 sequence: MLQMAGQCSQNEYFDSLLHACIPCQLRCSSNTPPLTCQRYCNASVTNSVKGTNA
Assay: flow cytometry of transduced PBMCs stained with BCMA-PE (PE-labeled BCMA extracellular domain-Fc)
assay endpoint: binding result

# input Sample anti-BCMA CAR of recombinant lentivirus LV 13 (SEQ ID NO: 277) (receptor, also called LV 13.1 to LV 13.9) EVQLLESGGGLVQPGGSLRLSCAASGFTFDRYAMSWFRQAPGKEREGVSAISTSGDSTYYADSVKGRFTISRDNSKNTLYLQMNSLRAEDTAVYYCAVLDEEAGAEGGYWGQGTQVTVSSTTTPAPRPPTPAPTIASQPLSLRPEACRPAAGGAVHTRGLDFACDIYIWAPLAGTCGVLLLSLVITLYCKRGRKKLLYIFKQPFMRPVQTTQEEDGCSCRFPEEEEGGCELRVKFSRSADAPAYQQGQNQLYNELNLGRREEYDVLDKRRGRDPEMGGKPRRKNPQEGLYNELQKDKMAEAYSEIGMKGERRRGKGHDGLYQGLSTATKDTYDALHMQALPPR — what was its binding result?
# output binds

# input Then what about the binder anti-BCMA CAR of recombinant lentivirus LV 9 (SEQ ID NO: 273) (receptor, also called LV 9.1 to LV 9.9) EVQLLESGGGLVQPGGSLRLSCAASGFTFGSEAMSWVRQAPGKERELVSAISGSGEVTYYADSVKGRFTISRDNSKNTLYLQMNSLRAEDTAVYYCQRLVEAKRHWGQGTQVTVSSTTTPAPRPPTPAPTIASQPLSLRPEACRPAAGGAVHTRGLDFACDIYIWAPLAGTCGVLLLSLVITLYCKRGRKKLLYIFKQPFMRPVQTTQEEDGCSCRFPEEEEGGCELRVKFSRSADAPAYQQGQNQLYNELNLGRREEYDVLDKRRGRDPEMGGKPRRKNPQEGLYNELQKDKMAEAYSEIGMKGERRRGKGHDGLYQGLSTATKDTYDALHMQALPPR ?
# output binds
